The measurements presented in this section are drawn from patent US20240182536A1.

Biological target: T1, interleukin 18 binding protein (IL-18BP) (UniProt O95998 31-194)
T1 sequence (looked up): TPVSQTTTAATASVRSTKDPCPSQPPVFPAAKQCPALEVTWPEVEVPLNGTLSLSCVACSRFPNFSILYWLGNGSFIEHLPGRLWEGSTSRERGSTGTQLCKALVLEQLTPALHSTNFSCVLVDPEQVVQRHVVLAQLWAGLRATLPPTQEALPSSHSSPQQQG
Experiment: cell-based or functional assay
# Ratio annotations
Respond numerically, and do not add a unit to the figure.

Please report the recorded Ratio for IL-18 variant K53T, S55P (ligand) YFGKLESKLSVIRNLNDQVLFIDQGNRPLFEDMTDSDMRDNAPRTIFIISMYTDPQPRGMAVTISVKSEKISTLSSENKIISFKEMNPPDNIKDTKSDIIFFQRSVPGHDNKMQFESSSYEGYFLASEKERDLFKLILKKEDELGDRSIMFTVQNED .
1.3

So what does the record say about Ratio for IL-18 variant K53S, S55Y (ligand) YFGKLESKLSVIRNLNDQVLFIDQGNRPLFEDMTDSDMRDNAPRTIFIISMYSDYQPRGMAVTISVKSEKISTLSSENKIISFKEMNPPDNIKDTKSDIIFFQRSVPGHDNKMQFESSSYEGYFLASEKERDLFKLILKKEDELGDRSIMFTVQNED ?
1.9

Could you tell me which Ratio is on file for IL-18 variant K53S, S55G (ligand) YFGKLESKLSVIRNLNDQVLFIDQGNRPLFEDMTDSDMRDNAPRTIFIISMYSDGQPRGMAVTISVKSEKISTLSSENKIISFKEMNPPDNIKDTKSDIIFFQRSVPGHDNKMQFESSSYEGYFLASEKERDLFKLILKKEDELGDRSIMFTVQNED ?
3.1
